Parameter: reverse-splicing fitness. Scope: all listed entries.
B1: Azoarcus group I ribozyme (parent)
chain: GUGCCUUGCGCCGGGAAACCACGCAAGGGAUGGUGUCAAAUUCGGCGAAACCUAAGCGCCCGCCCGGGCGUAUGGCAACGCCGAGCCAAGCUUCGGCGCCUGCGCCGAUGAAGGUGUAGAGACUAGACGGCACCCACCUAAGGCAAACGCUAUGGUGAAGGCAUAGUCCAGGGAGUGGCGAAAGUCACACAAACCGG

Variants of: B1
Test: reverse-splicing fitness (ratio to wild type); higher = more active; in vitro selection; Mg2+ level not given
MEASUREMENT NAME: reverse-splicing fitness

A145U C150A C169A U176A	0.014
C82U A145C C150A C169A U176A	0.0088
C82A A120U A145C C150A C169G U176A	0.00253
C82A A111G A120U A145G C150G C169A U176C	0.00953
C82A A111C A120G A145U C150A C169A	0.00893
C82A A111G A120G A145C C169U U176C	0.0129
C82A A111G A120U A145G C169A U176G	0.002
C82G A111C A120U A145G C150A U176A	0.00773
C82U A111C A120G A145G C169G U176C	0.028
C82U A145G C169U U176G	0.00391
C82A A120U A145C C150A C169U	0.00225
C82G A111U A120G C150G C169U	0.00861
C82G A111C A145G C150A C169U	0.00998
C82A A120C A145U C150G C169A	0.0101
C82G A111C A120C C150U C169G U176G	0.0066
C82A A145G C150U C169A U176C	0.0166
C82A A111G A120C C169A U176C	0.0223
C82G A111C A120G A145U C150G C169G U176G	0.00512
A111U A145G C150G U176G	0.0223
A111G C150A C169A U176G	0.00678
A111G A120C C150U C169U	0.161
C82U A111U A145U C150G U176C	0.019
C82G A111C A120C A145C C150A U176G	0.00623
C82A A111C A145U C150U U176A	0.0486
C82A A120G A145U C150A C169U	0.0066
C82A C150A C169A U176C	0.0177
C82A A111G A145U C150U C169G U176C	0.015
A111G A120G C150G C169U	0.0264
C82U A111C A120U A145C C150G	0.00528
C82U A111C A120U A145C C150A U176A	0.00307
C82U A120G C150U C169U	0.0137
C82G A111C A120U A145G C169U	0.00527
C82U C169A U176G	0.00439
A111G A120C A145G C150A C169G	0.0108
C82A A111C A120G A145C C150G C169U U176A	0.0089
A111U A120U A145G C150U U176G	0.0253
C82U A111C A120U A145G C150U C169A U176C	0.00367
C82A A111G A145G C169A U176C	0.0253
A111C A120C C150G C169U U176C	0.014
C82U A111G A120C A145U C150G C169A	0.00804
C82U A111C A145U C150G C169U	0.00877
A111G A120G A145G C150U C169U U176A	0.0625
C82U A145U C150U C169G U176A	0.00933
C82U A111U A120U A145U U176G	0.00339
C82A A111U A120C A145G C150A C169U U176A	0.019
C82A A111C A145C U176A	0.0639
